# Tested on: OVCAR-5
# measurement notes: NCI tumour cell line growth inhibition, 48 h
The source made the active and inactive calls. No stated cut-off is given here; in the data, active = GI50 up to about 1.1 µM and inactive = higher. Where a SMILES comes first, the peptide text is derived from it. [ ]: non-standard residue; d: D form. The star is where a group is joined. Phe(4-NO2) = N[CH](Cc1ccc([N+](=O)[O-])cc1)C(=O)O; Boc = CC(C)(C)OC(=O)*; OBn = c1ccc(CO*)cc1
# GI50 annotations
property name: GI50

>>> observed_value("CCN1CC(C)Cn2c(=O)[nH]c3cc(Br)cc1c32 (stereo not drawn)")
"70.5 µM (inactive)"
>>> observed_value("c1ccc(/C(=N/Nc2ccccn2)c2ncccn2)cc1")
"2.77 µM (inactive)"
>>> observed_value("N#CC(C#N)=c1[nH]c2cccc3c2-c2c(cccc2c3=C(C#N)C#N)[nH]1")
"> 100 µM (inactive)"
>>> observed_value("CCOC(=O)c1ccc(N2C(=O)Cc3ccccc3C2=O)cc1")
"> 100 µM (inactive)"
>>> observed_value("CN1C(=O)C(O)CC1c1cccc(F)c1 (stereo not drawn)")
"> 100 µM (inactive)"
>>> observed_value("CCOC(=O)c1c(-c2ccccc2)[nH]c2ccc(Cl)cc2c1=O")
"> 100 µM (inactive)"
>>> observed_value("CNC1=C(C)C(=O)C(O)=C([C@H](C)CCC=C(C)C)C1=O")
"77.8 µM (inactive)"
>>> observed_value("COc1ccc(-c2cc(-c3ccncc3)nc(N)c2-c2ccc(F)cc2)cc1")
"> 100 µM (inactive)"
>>> observed_value("COc1ccc(/C=c2/sc3n(c2=O)NC2(CCCCC2)NN=3)cc1")
"> 100 µM (inactive)"
>>> observed_value("CCCO/N=[N+](\\[O-])N(CC)CC")
"> 100 µM (inactive)"
>>> observed_value("Cc1nnc(N/N=C2/C(=O)Nc3c(Cl)cc(Cl)cc32)n1N")
"> 100 µM (inactive)"
>>> observed_value("COC(=O)c1cc(NC(=O)c2cc(NC(=O)c3cc([N+](=O)[O-])cn3C)cn2C)cn1C")
"81.1 µM (inactive)"
>>> observed_value("CCOC(=O)NC(Nc1cc(Cl)ccc1OC)(C(F)(F)F)C(F)(F)F")
"> 100 µM (inactive)"
>>> observed_value("CN(C)/C=N/c1nc2ncn(CCOC(=O)c3ccccc3)c2c(=O)[nH]1")
"> 100 µM (inactive)"
>>> observed_value("CCOc1ccccc1NC(=O)C(=O)CC(=O)c1c(C)[n+]([O-])c2ccccc2[n+]1[O-]")
"> 100 µM (inactive)"
>>> observed_value("COc1cccc2c1OCC1Cc3ccccc3OC21 (stereo not drawn)")
"> 100 µM (inactive)"
>>> observed_value("COC(=O)C1=C(C)C(=O)[C@]23C(CCCC[C@H]12)C(=O)[C@H](C(=O)OC)C3C (stereo partly drawn)")
"> 100 µM (inactive)"
>>> observed_value("NS(=O)(=O)c1c(O)c2ccccc2oc1=O")
"> 100 µM (inactive)"
>>> observed_value("CC1=NN(C(=O)c2ccc(Cl)cc2)C(=O)/C1=C/c1ccccc1O")
"> 100 µM (inactive)"
>>> observed_value("CCC1CCc2c(c(=O)oc3c2cc(OC)c2cccc(OC)c23)C1 (stereo not drawn)")
"> 100 µM (inactive)"
>>> observed_value("COC(=O)c1c/c(=N\\NC(=O)CC(=O)Nc2ccccc2OC)c2ccccc2o1")
"> 100 µM (inactive)"
>>> observed_value("COc1ccc2c(c1)OCC1Cc3cc4c(cc3OC21)OCO4 (stereo not drawn)")
"60.7 µM (inactive)"
>>> observed_value("COc1ccc(O[C@H](CO)C[C@@H]2COC(C)(C)O2)cc1")
"> 100 µM (inactive)"
>>> observed_value("COc1ccc(Nc2nc3ccccc3nc2-c2cccs2)cc1OC")
"> 10 µM (inactive)"
>>> observed_value("O=C(Nc1sccc1S(=O)(=O)c1ccc(Cl)cc1)c1ccc(Cl)cc1Cl")
"> 84.5 µM (inactive)"
>>> observed_value("COc1ccc(-c2nc3ccc(C)cc3o2)c(OC)c1")
"14.9 µM (inactive)"
>>> observed_value("O=C(CC(=O)N1N=C(c2ccccc2)C(/N=N/c2ccc(Cl)cc2)C1=O)Nc1ccccc1Cl (stereo not drawn)")
"> 100 µM (inactive)"
>>> observed_value("O=[N+]([O-])c1ccc(CSc2c3ccccc3nc3ccccc23)cc1")
"15.3 µM (inactive)"
>>> observed_value("O=C(Nc1ccc(Cl)c(Cl)c1)N1N=C2c3ccccc3CCC2C1c1ccc(Cl)cc1 (stereo not drawn)")
"> 100 µM (inactive)"
>>> observed_value("COCC(O)Cn1ccnc1[N+](=O)[O-] (stereo not drawn) [MISONIDAZOLE]")
"> 100 µM (inactive)"
>>> observed_value("O=[N+]([O-])c1nc(-c2ccccn2)[nH]c1[N+](=O)[O-]")
"> 100 µM (inactive)"
>>> observed_value("O=C(CO[N+](=O)[O-])OC/C=C/c1ccccc1")
"> 100 µM (inactive)"
>>> observed_value("Cc1c(/N=C/C=C/c2ccccc2)c(=O)n(-c2ccccc2)n1C")
"58.9 µM (inactive)"
>>> observed_value("COc1ccc(-c2c(C#N)c(-c3ccccc3)n(NS(=O)(=O)c3ccccc3)c(=O)c2C#N)cc1")
"> 100 µM (inactive)"
>>> observed_value("O=C1CC(n2ccnc2)c2c(Cl)sc(Cl)c21 (stereo not drawn)")
"22.5 µM (inactive)"
>>> observed_value("CN1C=C(C(N)=O)C2CC(O)[C@@](NC(=O)CS(N)(=O)=O)(C(=O)O)C2C1 (stereo partly drawn)")
"2.42 µM (inactive)"
>>> observed_value("CN(C)C[C@H]1CC[C@@H](CN(C)C)C1=O")
"8.79 µM (inactive)"
>>> observed_value("COc1ccc2nc3cc(Cl)ccc3c(Sc3ccc(NC(C)=O)cc3)c2c1")
"> 29 µM (inactive)"
>>> observed_value("Cc1nn(C(=O)c2ccc(Cl)cc2)c2c1C(/C=C/c1ccccc1)SC(=N)N2 (stereo not drawn)")
"> 10 µM (inactive)"
>>> observed_value("Oc1ccc(Cl)cc1Cc1cc(Cl)cc(Cc2cc(Cl)ccc2O)c1O")
"3.17 µM (inactive)"
>>> observed_value("O=C(NC1CCN(Cc2ccccc2)CC1)c1ccccc1I")
"22.5 µM (inactive)"
>>> observed_value("COC(=O)c1ccccc1NC(=O)C(=O)Cc1nc2c3c(ccc2nc1O)C(=O)c1ccccc1C3=O")
"79.4 µM (inactive)"
>>> observed_value("COC(=O)CCC(NC(=O)OC(C)(C)C)C(=O)NC(Cc1ccc([N+](=O)[O-])cc1)C(=O)NCC(=O)OCc1ccccc1 (stereo not drawn) (Boc-Glu(OMe)-[Phe(4-NO2)]-Gly-OBn; configuration not given here)")
"> 100 µM (inactive)"

====

# Test system: EKVX
# measurement notes: NCI tumour cell line growth inhibition, 48 h
The source made the active and inactive calls. Rule as the data show it: active = GI50 up to about 1.1 µM and inactive = higher.
property name: GI50

>>> observed_value("CCOC(=O)[C@@H]1C2C(=C[C@H]3[C@H]1C(=O)N1CCCC[C@H]31)CCCN2C(=O)OCc1ccccc1 (stereo not given in full)")
"38.3 µM (inactive)"
>>> observed_value("COC(=O)c1cc(NC(=O)c2cc(NC(=O)c3cc([N+](=O)[O-])cn3C)cn2C)cn1C")
"34.1 µM (inactive)"
>>> observed_value("COc1ccc2cc(Oc3ccc(Cl)cc3)c(=O)oc2c1")
"> 100 µM (inactive)"
>>> observed_value("O=C(Nc1sccc1S(=O)(=O)c1ccc(Cl)cc1)c1ccc(Cl)cc1Cl")
"> 79.4 µM (inactive)"
>>> observed_value("Nc1nc(O)nc2sc3c(c12)CCCC3")
"7.48 µM (inactive)"
>>> observed_value("Cc1cc(OCc2nnc3n2N=C(c2cc(F)c(Cl)cc2Cl)/C(=C/c2ccc(-c4ccc(Cl)cc4)o2)S3)ccc1Cl")
"16.3 µM (inactive)"
>>> observed_value("COC(=O)C1=CC2OC1(C)C1(CC1)C2=O (stereo not given)")
"15.2 µM (inactive)"
>>> observed_value("O=C1/C(=C\\c2cccc(Oc3ccccc3)c2)SC(c2ccccc2)N1c1ccc(Cl)cc1 (stereo not given)")
"80.7 µM (inactive)"
>>> observed_value("O=C(CC(=O)C1CCOC1=O)C(=O)Nc1cccc(Cl)c1 (stereo not given)")
"> 100 µM (inactive)"
>>> observed_value("CN(C)/C=C1\\CCc2ccc([N+](=O)[O-])cc2C1=O")
"> 100 µM (inactive)"

====

# Tested on: OVCAR-3
# measurement notes: NCI tumour cell line growth inhibition, 48 h
Active and inactive are the calls of the source. Cut-off read from the data, not from the text of the source: active = GI50 up to about 1.1 µM and inactive = higher.
property name: GI50

>>> observed_value("Nc1nc(N)c(NC(=O)CCCO)c(=O)[nH]1")
"> 100 µM (inactive)"
>>> observed_value("CN(C)CCNc1ccc2ncn3c4ccccc4c(=O)c1c23")
"7.76 µM (inactive)"
>>> observed_value("Clc1ccc(-c2nn3c(CCCCCCCCc4nnc5sc(-c6ccc(Cl)cc6)nn45)nnc3s2)cc1")
"19.8 µM (inactive)"
>>> observed_value("COc1ccccc1NC(=O)C1=C(C)NC(C)=C(C(=O)Nc2ccccc2OC)C1c1ccccc1OC")
"80.4 µM (inactive)"
>>> observed_value("O=C1CC(=O)c2c(Cl)sc(Cl)c21")
"86.5 µM (inactive)"
>>> observed_value("NC(CCC(=O)NC(CSSCCCCS(=O)O)C(=O)NCC(=O)O)C(=O)O (configuration not stated)")
"> 100 µM (inactive)"
>>> observed_value("COC(=O)/C(=N\\NC(N)=O)C(C(=O)C(=O)Nc1ccccc1OC)c1nc2ccc([N+](=O)[O-])cc2nc1O (configuration not stated)")
"> 100 µM (inactive)"
>>> observed_value("OC1CCC(COC(c2ccccc2)(c2ccccc2)c2ccccc2)O1 (configuration not stated)")
"18.4 µM (inactive)"
>>> observed_value("CC(C)C/N=C(\\N)N=C(N)N")
"> 100 µM (inactive)"
>>> observed_value("CC(C)OP(=O)(OC(C)C)/C(C#N)=C/c1c[nH]c2ccccc12")
"34 µM (inactive)"
>>> observed_value("CCOC(=O)CCC(NC(=O)c1ccc(/N=C/c2nc3cc(C(F)(F)F)ccc3nc2-c2ccccc2)cc1)C(=O)OCC (configuration not stated)")
"46.6 µM (inactive)"
>>> observed_value("CC(=O)Oc1c(N2CCCCC2)c(C(=O)c2ccccc2)c(O)c2ccn(N(C)C)c12")
"19.6 µM (inactive)"
>>> observed_value("N#CC(C(=O)CCC(=O)C(C#N)c1ccccc1)c1ccccc1 (configuration not stated)")
"> 100 µM (inactive)"
>>> observed_value("CCC(=O)Nc1ccc(NC(C#N)c2cccc(Oc3ccccc3)c2)cc1 (configuration not stated)")
"52.4 µM (inactive)"
>>> observed_value("Cc1cccc(C)c1NC(=O)CCC(=O)NNc1nnc(C)n1N")
"> 100 µM (inactive)"
>>> observed_value("N#CC(C#N)=NNc1ccc2cn[nH]c2c1")
"23.9 µM (inactive)"
>>> observed_value("CC1CCc2sc3nc(S)n(-c4ccccc4)c(=O)c3c2C1 (configuration not stated)")
"39.6 µM (inactive)"
